Where these numbers come from: ChEMBL document CHEMBL2407040

Assay: AUC (0 to infinity) in mouse at 20 mg/kg, po
Format: ADME, organism-based
Parameters: time infinity, dose 20 mg/kg, route oral
Settings: plasma
Value Kind: AUC(0-inf)
Write the figure, then the unit, nothing else.

Data request: Query (molecule): `CC(=O)N1CCC(n2cc(-c3cnc(N)c4oc(-c5cccc6cnsc56)cc34)cn2)CC1` ; field requested: AUC(0-inf)
Data returned: 285 ng·h/mL

* * *

We begin with a simple list: items and their reported hepatic extraction ratio.
Test: Metabolic stability in mouse liver microsomes assessed as extraction ratio
Assay type: ADME, Microsome
Details: read-out: ERH
Answer using only a numeral; do not append any unit.

Record Smiles: CC(=O)N1CCC(n2cc(-c3cnc(N)c4oc(-c5csc6cnccc56)cc34)cn2)CC1
hepatic extraction ratio: 0.72
//
Record Smiles: CC(=O)N1CCC(n2cc(-c3cnc(N)c4oc(-c5cccc6cnsc56)cc34)cn2)CC1
hepatic extraction ratio: 0.84
//
Record Smiles: CC(=O)N1CCC(n2cc(-c3cnc(N)c4oc(-c5cccc6nnsc56)cc34)cn2)CC1
hepatic extraction ratio: 0.7

// switching to the query compound
Data request: Query (compound): `CC(=O)N1CCC(n2cc(-c3cnc(N)c4oc(-c5cnc6cnccn56)cc34)cn2)CC1` ; field requested: hepatic extraction ratio
Data returned: 0.52

* * *

Molecular target: TAK1/TAB1 (Homo sapiens, UniProt O43318)
Sequence (Q15750 whole entry, one chain of several, the tested form may be a part): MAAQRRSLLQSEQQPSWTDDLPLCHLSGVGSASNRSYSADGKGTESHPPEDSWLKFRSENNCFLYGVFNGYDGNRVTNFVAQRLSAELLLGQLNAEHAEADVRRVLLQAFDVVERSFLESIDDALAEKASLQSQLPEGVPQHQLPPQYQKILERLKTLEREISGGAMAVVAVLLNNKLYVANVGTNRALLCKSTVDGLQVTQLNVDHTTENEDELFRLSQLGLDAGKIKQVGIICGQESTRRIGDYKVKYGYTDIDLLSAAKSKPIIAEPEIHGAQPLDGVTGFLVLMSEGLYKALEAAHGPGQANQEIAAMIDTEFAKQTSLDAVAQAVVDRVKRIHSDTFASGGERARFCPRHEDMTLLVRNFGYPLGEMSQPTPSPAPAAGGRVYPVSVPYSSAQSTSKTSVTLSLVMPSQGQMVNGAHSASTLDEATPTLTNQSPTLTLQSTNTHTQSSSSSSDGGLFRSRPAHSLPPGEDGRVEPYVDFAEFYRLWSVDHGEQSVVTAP
Experiment: Inhibition of truncated TAK1-TAB1(unknown origin) using MKK7 as substrate by ALPHAScreen assay in presence of ATP
Value Kind: IC50 (nM)
Report the value in nM with no unit label.

Use the examples below as a reference point.
Record Smiles: CC(=O)N1CCC(n2cc(-c3cnc(N)c4oc(-c5ccccc5CC#N)cc34)cn2)CC1
Value Unit: nM
Quantitative Readout: 250
//
Record Smiles: CC(=O)N1CCC(n2cc(-c3cnc(N)c4oc(-c5cnc6cnccn56)cc34)cn2)CC1
Value Unit: nM
Quantitative Readout: 1400

Data request: // fetch TAK1/TAB1 (Homo sapiens, UniProt O43318) IC50 for `CC(=O)N1CCC(n2cc(-c3cnc(N)c4oc(-c5ccccc5C(N)=O)cc34)cn2)CC1`
Data returned: 6000

Data request: // fetch TAK1/TAB1 (Homo sapiens, UniProt O43318) IC50 for `CC(=O)N1CCC(n2cc(-c3cnc(N)c4oc(-c5cccc(O)c5)cc34)cn2)CC1`
Data returned: 61

* * *

Assay: Volume of distribution at steady state in mouse at 2 mg/kg, iv
Format: ADME, organism-based
Parameters: dose 2 mg/kg, route intravenous
Conditions: in vivo, read-out: Vdss
Value Kind: Vd (L/kg)
Report the value in L/kg with no unit label.

Data request: Query (compound): `CC(=O)N1CCC(n2cc(-c3cnc(N)c4oc(-c5cccc6cnsc56)cc34)cn2)CC1` ; field requested: Vd
Data returned: 2.5

* * *

Experiment: Cmax in mouse at 20 mg/kg, po
Format: ADME, organism-based
Set-up: dose 20 mg/kg, route oral
Settings: in vivo
Value Kind: Cmax

Data request: Query (compound): `CC(=O)N1CCC(n2cc(-c3cnc(N)c4oc(-c5cccc6cnsc56)cc34)cn2)CC1` ; field requested: Cmax
Data returned: 1.6 µM

* * *

Molecular target: TAK1/TAB1 (Homo sapiens, UniProt O43318)
Experiment: Inhibition of truncated TAK1-TAB1(unknown origin) using MKK7 as substrate by ALPHAScreen assay in presence of ATP
Value Kind: pIC50
Quick note: pIC50 values are minus log10 of concentrations in mol/L.

Record Smiles: CC(=O)N1CCC(n2cc(-c3cnc(N)c4oc(-c5cccc6nnsc56)cc34)cn2)CC1
Target System: TAK1/TAB1 (Homo sapiens, UniProt O43318)
pIC50: 8.40
--
Record Smiles: CSc1ccc(-c2cc3c(-c4cnn(C5CCN(C(C)=O)CC5)c4)cnc(N)c3o2)cc1
Target System: TAK1/TAB1 (Homo sapiens, UniProt O43318)
pIC50: 4.76
--
Record Smiles: CC(=O)N1CCC(n2cc(-c3cnc(N)c4oc(-c5cnn(C)c5)cc34)cn2)CC1
Target System: TAK1/TAB1 (Homo sapiens, UniProt O43318)
pIC50: 5.80
--
Record Smiles: CC(=O)N1CCC(n2cc(-c3cnc(N)c4oc(-c5cccc6cnsc56)cc34)cn2)CC1
Target System: TAK1/TAB1 (Homo sapiens, UniProt O43318)
pIC50: 7.64
--
Record Smiles: CC(=O)N1CCC(n2cc(-c3cnc(N)c4oc(-c5cccc(C(F)(F)F)c5)cc34)cn2)CC1
Target System: TAK1/TAB1 (Homo sapiens, UniProt O43318)
pIC50: 5.55
--
Record Smiles: CC(=O)N1CCC(n2cc(-c3cnc(N)c4oc(-c5cccc(CO)c5)cc34)cn2)CC1
Target System: TAK1/TAB1 (Homo sapiens, UniProt O43318)
pIC50: 6.07
--
Record Smiles: CC(=O)N1CCC(n2cc(-c3cnc(N)c4oc(-c5ccccc5CO)cc34)cn2)CC1
Target System: TAK1/TAB1 (Homo sapiens, UniProt O43318)
pIC50: 6.12
--
Record Smiles: CC(=O)N1CCC(n2cc(-c3cnc(N)c4oc(-c5cccc([N+](=O)[O-])c5)cc34)cn2)CC1
Target System: TAK1/TAB1 (Homo sapiens, UniProt O43318)
pIC50: 7.05
--
Record Smiles: CC(=O)N1CCC(n2cc(-c3cnc(N)c4oc(C5=CCCCC5)cc34)cn2)CC1
Target System: TAK1/TAB1 (Homo sapiens, UniProt O43318)
pIC50: 6.34
--
Record Smiles: CC(=O)N1CCC(n2cc(-c3cnc(N)c4oc(-c5ccc(OC(F)(F)F)cc5)cc34)cn2)CC1
Target System: TAK1/TAB1 (Homo sapiens, UniProt O43318)
pIC50: 5.46

Data request: Query (compound): `CC(=O)N1CCC(n2cc(-c3cnc(N)c4oc(-c5cnco5)cc34)cn2)CC1` ; field requested: pIC50
Data returned: 5.92

Data request: Query (compound): `CC(=O)N1CCC(n2cc(-c3cnc(N)c4oc(-c5ccccc5C#N)cc34)cn2)CC1` ; field requested: pIC50
Data returned: 6.25

Data request: Query (compound): `COCCOc1cccc(-c2cc3c(-c4cnn(C5CCN(C(C)=O)CC5)c4)cnc(N)c3o2)c1` ; field requested: pIC50
Data returned: 5.49

* * *

Experiment: Metabolic stability in human liver microsomes assessed as extraction ratio
Assay type: ADME, Microsome
Details: read-out: ERH
Value Kind: hepatic extraction ratio
Answer using only a numeral; do not append any unit.

Use the examples below as a reference point.
Record Smiles: CC(=O)N1CCC(n2cc(-c3cnc(N)c4oc(-c5csc6cnccc56)cc34)cn2)CC1
hepatic extraction ratio: 0.68
--
Record Smiles: CC(=O)N1CCC(n2cc(-c3cnc(N)c4oc(-c5cccc6nnsc56)cc34)cn2)CC1
hepatic extraction ratio: 0.68

// switching to the query molecule
Data request: Query (molecule): `CC(=O)N1CCC(n2cc(-c3cnc(N)c4oc(-c5csc6ccccc56)cc34)cn2)CC1` ; field requested: hepatic extraction ratio
Data returned: 0.68

* * *

Biological target: Mitogen-activated protein kinase kinase kinase 7 (Homo sapiens, UniProt O43318)
Sequence (O43318 whole entry): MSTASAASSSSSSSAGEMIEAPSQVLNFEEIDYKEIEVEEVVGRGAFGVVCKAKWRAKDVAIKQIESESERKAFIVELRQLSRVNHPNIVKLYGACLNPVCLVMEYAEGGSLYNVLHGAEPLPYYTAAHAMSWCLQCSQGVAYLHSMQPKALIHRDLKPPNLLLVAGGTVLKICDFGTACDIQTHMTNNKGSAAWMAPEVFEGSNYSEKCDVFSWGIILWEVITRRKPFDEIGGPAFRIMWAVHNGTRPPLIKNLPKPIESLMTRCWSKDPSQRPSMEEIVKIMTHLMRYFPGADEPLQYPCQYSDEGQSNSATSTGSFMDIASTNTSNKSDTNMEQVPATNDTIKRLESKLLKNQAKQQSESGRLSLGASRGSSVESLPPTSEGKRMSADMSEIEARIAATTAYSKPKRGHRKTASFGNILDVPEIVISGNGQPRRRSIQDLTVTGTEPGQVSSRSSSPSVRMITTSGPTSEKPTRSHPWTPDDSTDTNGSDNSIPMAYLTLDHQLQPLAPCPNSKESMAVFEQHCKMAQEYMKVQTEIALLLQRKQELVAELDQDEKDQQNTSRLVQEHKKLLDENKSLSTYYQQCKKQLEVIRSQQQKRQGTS
Assay: Inhibition of TAK1 in human HCT116 cells assessed as inhibition of TNF-alpha-stimulated JNK phosphorylation
Consider the cut-off 1000 nM. If the recorded IC50 is strictly smaller, the label is Fulfilled; if not, the label is Not fulfilled.

Record Smiles: CC(=O)N1CCC(n2cc(-c3cnc(N)c4oc(-c5ccc(C#N)cc5)cc34)cn2)CC1
Category Label: Not fulfilled
//
Record Smiles: CC(=O)N1CCC(n2cc(-c3cnc(N)c4oc(-c5cccc6nnsc56)cc34)cn2)CC1
Category Label: Fulfilled
//
Record Smiles: CC(=O)N1CCC(n2cc(-c3cnc(N)c4oc(-c5cccc(O)c5)cc34)cn2)CC1
Category Label: Fulfilled
//
Record Smiles: CC(=O)N1CCC(n2cc(-c3cnc(N)c4oc(-c5cccc(CO)c5)cc34)cn2)CC1
Category Label: Fulfilled
//
Record Smiles: CC(=O)N1CCC(n2cc(-c3cnc(N)c4oc(-c5ccc(CC#N)cc5)cc34)cn2)CC1
Category Label: Not fulfilled

Data request: # check: IC50 < 1000 nM for `CC(=O)Nc1cccc(-c2cc3c(-c4cnn(C5CCN(C(C)=O)CC5)c4)cnc(N)c3o2)c1`
Data returned: Not fulfilled

Data request: # check: IC50 < 1000 nM for `CC(=O)N1CCC(n2cc(-c3cnc(N)c4oc(-c5csc6cnccc56)cc34)cn2)CC1`
Data returned: Fulfilled

Data request: # check: IC50 < 1000 nM for `CC(=O)N1CCC(n2cc(-c3cnc(N)c4oc(-c5cccc(S(=O)(=O)N(C)C)c5)cc34)cn2)CC1`
Data returned: Not fulfilled

Data request: # check: IC50 < 1000 nM for `CC(=O)N1CCC(n2cc(-c3cnc(N)c4oc(-c5ccccc5C(N)=O)cc34)cn2)CC1`
Data returned: Not fulfilled

Data request: # check: IC50 < 1000 nM for `CSc1ccccc1-c1cc2c(-c3cnn(C4CCN(C(C)=O)CC4)c3)cnc(N)c2o1`
Data returned: Fulfilled

Data request: # check: IC50 < 1000 nM for `CC(=O)N1CCC(n2cc(-c3cnc(N)c4oc(-c5ccc(CO)cc5)cc34)cn2)CC1`
Data returned: Not fulfilled

Data request: # check: IC50 < 1000 nM for `CC(=O)N1CCC(n2cc(-c3cnc(N)c4oc(-c5ccccc5CO)cc34)cn2)CC1`
Data returned: Not fulfilled

Data request: # check: IC50 < 1000 nM for `CSc1ccc(-c2cc3c(-c4cnn(C5CCN(C(C)=O)CC5)c4)cnc(N)c3o2)cc1`
Data returned: Not fulfilled

Data request: # check: IC50 < 1000 nM for `CC(=O)N1CCC(n2cc(-c3cnc(N)c4oc(-c5cn[nH]c5)cc34)cn2)CC1`
Data returned: Not fulfilled

Data request: # check: IC50 < 1000 nM for `CC(=O)N1CCC(n2cc(-c3cnc(N)c4oc(-c5cccc(N)c5)cc34)cn2)CC1`
Data returned: Fulfilled

Data request: # check: IC50 < 1000 nM for `CC(=O)N1CCC(n2cc(-c3cnc(N)c4oc(-c5ccccc5)cc34)cn2)CC1`
Data returned: Fulfilled

Data request: # check: IC50 < 1000 nM for `CC(=O)N1CCC(n2cc(-c3cnc(N)c4oc(-c5ccc(OC(F)(F)F)cc5)cc34)cn2)CC1`
Data returned: Not fulfilled

Data request: # check: IC50 < 1000 nM for `COCCOc1cccc(-c2cc3c(-c4cnn(C5CCN(C(C)=O)CC5)c4)cnc(N)c3o2)c1`
Data returned: Not fulfilled
